Target: T1, orthogonal hCD122 receptor (hoRb), hCD122 with H133D and Y134F (human, UniProt P14784 27-550)
T1 sequence: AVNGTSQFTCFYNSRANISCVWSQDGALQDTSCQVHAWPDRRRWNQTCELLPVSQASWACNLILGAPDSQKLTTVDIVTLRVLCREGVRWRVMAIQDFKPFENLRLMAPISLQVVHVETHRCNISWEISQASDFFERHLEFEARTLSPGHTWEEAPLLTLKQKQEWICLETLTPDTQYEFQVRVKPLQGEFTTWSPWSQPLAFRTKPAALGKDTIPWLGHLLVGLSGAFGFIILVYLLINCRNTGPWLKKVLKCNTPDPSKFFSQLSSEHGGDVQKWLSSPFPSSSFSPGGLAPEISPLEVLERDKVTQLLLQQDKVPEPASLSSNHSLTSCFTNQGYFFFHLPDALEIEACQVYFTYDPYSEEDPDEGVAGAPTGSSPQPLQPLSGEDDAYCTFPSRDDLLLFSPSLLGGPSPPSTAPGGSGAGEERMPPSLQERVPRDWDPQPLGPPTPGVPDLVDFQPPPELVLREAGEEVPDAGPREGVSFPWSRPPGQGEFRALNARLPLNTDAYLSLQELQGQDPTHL
Test: cell-based or functional assay
PROPERTY_LABEL: NKL Ortho Proliferation Signal 1:50
One number for each entry.

BINDER | RECORDED_VALUE
G27K, SQVLKA (ligand) APTSSSTKKTQLQLSQLLVLLKAILNKINNYKNPKLTRMLTFKFYMPKKATELKHLQCLEEELKPLEEVLNLAQSKNFHLRPRDLISNINVIVLELKGSETTFMCEYADETATIVEFLNRWITFCQSIISTLT | 15200
F42K, SQVLKA (ligand) APTSSSTKKTQLQLSQLLVLLKAILNGINNYKNPKLTRMLTKKFYMPKKATELKHLQCLEEELKPLEEVLNLAQSKNFHLRPRDLISNINVIVLELKGSETTFMCEYADETATIVEFLNRWITFCQSIISTLT | 8730
Q126K, SQVLKA (ligand) APTSSSTKKTQLQLSQLLVLLKAILNGINNYKNPKLTRMLTFKFYMPKKATELKHLQCLEEELKPLEEVLNLAQSKNFHLRPRDLISNINVIVLELKGSETTFMCEYADETATIVEFLNRWITFCKSIISTLT | 6980

IN: Read the entry C125S, SQVLKA (ligand) APTSSSTKKTQLQLSQLLVLLKAILNGINNYKNPKLTRMLTFKFYMPKKATELKHLQCLEEELKPLEEVLNLAQSKNFHLRPRDLISNINVIVLELKGSETTFMCEYADETATIVEFLNRWITFSQSIISTLT and write its reported NKL Ortho Proliferation Signal 1:50.
OUT: 27800
